Some molecules, each annotated with its measured viability, T/C.
System: LG0567-F671-PDC KRAS tumor spheroid viability
protocol summary: Anticancer human tumor LG0567-F671-PDC patient-derived lung adenocarcinoma cell line growth inhibition [KRAS2]
experimental parameters: second compound 0.1 µM; first compound 0.0316 µM; active compounds read low; spheroids with HUVEC and MSC

Solved entries:
CN(C)C/C=C/C(=O)Nc1cc2c(Nc3ccc(F)c(Cl)c3)ncnc2cc1O[C@H]1CCOC1 + COc1cc2nc(C)nc(NC(C)c3cc(N)cc(C(F)(F)F)c3)c2cc1OC1CCOC1 | 51.6%
Cn1nccc1Nc1nccc(-c2cc3c(s2)C(C)(C)N(CCN2CCOCC2)C3=O)n1 + COc1cc2nc(C)nc(NC(C)c3cc(N)cc(C(F)(F)F)c3)c2cc1OC1CCOC1 | 79.7%

Consider the record given below.
Value of viability, T/C reported for the molecule CC(C)n1nc(-c2ccc3oc(N)nc3c2)c2c(N)ncnc21 + COc1cc2nc(C)nc(NC(C)c3cc(N)cc(C(F)(F)F)c3)c2cc1OC1CCOC1 is 51.8%

----------
Tested on: LG0567-F671-PDC KRAS tumor spheroid viability
protocol summary: Anticancer human tumor LG0567-F671-PDC cell line growth inhibition [KRAS2]; active = viability on the fitted dose curve at most 10% of control; inactive = the rest;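 also: drug exposure lasted seven days after spheroids formed for three days; 100% = DMSO vehicle control viability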
experimental parameters: second compound 3.16 µM; first compound 0.001 µM; spheroids with HUVEC and MSC
Text: Multicellular complex tumor spheroid response to RAS pathway inhibitors in combination with a targeted agents in patient-derived cell lines with oncogenic KRAS variants from multiple cancer types A high-throughput screen of multi-cell type tumor spheroids was designed to identify active combinations of targeted small molecules and KRAS pathway inhibitors. […] Compounds. […] If the clinical Cmax for an agent had not been determined, the highest concentration tested was 10 microM. […]
Returns: one label drawn from active, inactive

[ask] I would be grateful if you could indicate the recorded call for CC(C)n1nc(-c2ccc3oc(N)nc3c2)c2c(N)ncnc21 + C=CC(=O)N1CCN(c2nc(=O)n(-c3c(C)ccnc3C(C)C)c3nc(-c4c(O)cccc4F)c(F)cc23)C(C)C1 .
[reply] inactive

[ask] What did the test return for CC(=O)Nc1cccc(-n2c(=O)n(C3CC3)c(=O)c3c(Nc4ccc(I)cc4F)n(C)c(=O)c(C)c32)c1 + C=CC(=O)N1CCN(c2nc(=O)n(-c3c(C)ccnc3C(C)C)c3nc(-c4c(O)cccc4F)c(F)cc23)C(C)C1 ?
[reply] inactive

[ask] GET /call?item= CN(C)C/C=C/C(=O)Nc1cc2c(Nc3ccc(F)c(Cl)c3)ncnc2cc1O[C@H]1CCOC1 + C=CC(=O)N1CCN(c2nc(=O)n(-c3c(C)ccnc3C(C)C)c3nc(-c4c(O)cccc4F)c(F)cc23)C(C)C1 returns the recorded outcome of this test.
[reply] inactive

[ask] Identify the outcome logged in this assay for the molecule shown: CC(C)n1nc(-c2ccc3oc(N)nc3c2)c2c(N)ncnc21 + CC1OCC2(CCN(c3cnc(Sc4ccnc(N)c4Cl)c(N)n3)CC2)C1N
[reply] inactive

[ask] What outcome does the record of this test show for CN(C)C/C=C/C(=O)Nc1cc2c(Nc3ccc(F)c(Cl)c3)ncnc2cc1O[C@H]1CCOC1 + COc1cc2nc(C)nc(NC(C)c3cc(N)cc(C(F)(F)F)c3)c2cc1OC1CCOC1 ?
[reply] inactive

[ask] How was CC(C)n1nc(-c2ccc3oc(N)nc3c2)c2c(N)ncnc21 + CNCc1ccccc1-c1csc(C(C)Nc2nc(C)nc3cc(OC)c(OC)cc23)c1 classified in this test?
[reply] active

[ask] Fill in: this test's call for Cn1ncnc1[C@H]1c2n[nH]c(=O)c3cc(F)cc(c23)N[C@@H]1c1ccc(F)cc1 + CC1OCC2(CCN(c3cnc(Sc4ccnc(N)c4Cl)c(N)n3)CC2)C1N is ___
[reply] inactive

[ask] How was CC(=O)Nc1cccc(-n2c(=O)n(C3CC3)c(=O)c3c(Nc4ccc(I)cc4F)n(C)c(=O)c(C)c32)c1 + COc1cc2nc(C)nc(NC(C)c3cc(N)cc(C(F)(F)F)c3)c2cc1OC1CCOC1 classified in this test?
[reply] inactive

----------
Quick reference: viability, T/C of the listed items.
Tested on: LG0567-F671-PDC KRAS tumor spheroid viability
protocol summary: Anticancer human tumor LG0567-F671-PDC cell line growth inhibition [KRAS2];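 also: drug exposure lasted seven days after spheroids formed for three days; 100% = DMSO vehicle control viability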
experimental parameters: second compound 0.316 µM; first compound 0.1 µM; active compounds read low; spheroids with HUVEC and MSC
From the text: Multicellular complex tumor spheroid response to RAS pathway inhibitors in combination with a targeted agents in patient-derived cell lines with oncogenic KRAS variants from multiple cancer types A high-throughput screen of multi-cell type tumor spheroids was designed to identify active combinations of targeted small molecules and KRAS pathway inhibitors. […] Compounds. […] If the clinical Cmax for an agent had not been determined, the highest concentration tested was 10 microM. […]
The reply should be a number in %, with the unit left off.

O=C(c1cc(Cc2n[nH]c(=O)c3ccccc23)ccc1F)N1CCN(C(=O)C2CC2)CC1 + COc1cc2nc(C)nc(NC(C)c3cc(N)cc(C(F)(F)F)c3)c2cc1OC1CCOC1 | 58.5

For record CC(C)n1nc(-c2ccc3oc(N)nc3c2)c2c(N)ncnc21 + COc1cc2nc(C)nc(NC(C)c3cc(N)cc(C(F)(F)F)c3)c2cc1OC1CCOC1 the listed viability, T/C is 34.7

The compound listed as CCN1CCN(Cc2ccc(Nc3ncc(F)c(-c4cc(F)c5nc(C)n(C(C)C)c5c4)n3)nc2)CC1 + C=CC(=O)N1CCN(c2nc(OCC3CCCN3C)nc3c2CCN(c2cccc4cccc(C)c24)C3)CC1CC#N has a reported viability, T/C of 22.5

For record Cn1ncnc1[C@H]1c2n[nH]c(=O)c3cc(F)cc(c23)N[C@@H]1c1ccc(F)cc1 + CC1OCC2(CCN(c3cnc(Sc4ccnc(N)c4Cl)c(N)n3)CC2)C1N the listed viability, T/C is 35.2

viability, T/C reported for this compound CCNC(=O)CC1N=C(c2ccc(Cl)cc2)c2cc(OC)ccc2-n2c(C)nnc21 (stereo unspecified) + C=CC(=O)N1CCN(c2nc(=O)n(-c3c(C)ccnc3C(C)C)c3nc(-c4c(O)cccc4F)c(F)cc23)C(C)C1 : 34.7

The measured viability, T/C associated with CN(C)C/C=C/C(=O)Nc1cc2c(Nc3ccc(F)c(Cl)c3)ncnc2cc1O[C@H]1CCOC1 + COc1cc2nc(C)nc(NC(C)c3cc(N)cc(C(F)(F)F)c3)c2cc1OC1CCOC1 reads 46.2

# compound COc1cc(Nc2ncc3c(n2)-c2ccc(Cl)cc2C(c2c(F)cccc2OC)=NC3)ccc1C(=O)O + C=CC(=O)N1CCN(c2nc(=O)n(-c3c(C)ccnc3C(C)C)c3nc(-c4c(O)cccc4F)c(F)cc23)C(C)C1 ; its viability, T/C = 11.9

----------
Tested on: LG0567-F671-PDC KRAS tumor spheroid viability
protocol summary: Anticancer human tumor LG0567-F671-PDC cell line growth inhibition [KRAS2];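 also: drug exposure lasted seven days after spheroids formed for three days; 100% = DMSO vehicle control viability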
experimental parameters: second compound 0.316 µM; first compound 0.1 µM; active compounds read low; spheroids with HUVEC and MSC
readout name: viability, T/C (%)
Record the value in %, omitting the unit from your answer.

Cn1nccc1Nc1nccc(-c2cc3c(s2)C(C)(C)N(CCN2CCOCC2)C3=O)n1 + C=CC(=O)N1CCN(c2nc(=O)n(-c3c(C)ccnc3C(C)C)c3nc(-c4c(O)cccc4F)c(F)cc23)C(C)C1 | 19.8
Cn1nccc1Nc1nccc(-c2cc3c(s2)C(C)(C)N(CCN2CCOCC2)C3=O)n1 + CC1OCC2(CCN(c3cnc(Sc4ccnc(N)c4Cl)c(N)n3)CC2)C1N | 35.9
CC(C)NCC(C(=O)N1CCN(c2ncnc3c2C(C)CC3O)CC1)c1ccc(Cl)cc1 (stereo unspecified) + CC1OCC2(CCN(c3cnc(Sc4ccnc(N)c4Cl)c(N)n3)CC2)C1N | 30.9
CC1(C)CCC(CN2CCN(c3ccc(C(=O)NS(=O)(=O)c4ccc(NCC5CCOCC5)c([N+](=O)[O-])c4)c(Oc4cnc5[nH]ccc5c4)c3)CC2)=C(c2ccc(Cl)cc2)C1 + CC1OCC2(CCN(c3cnc(Sc4ccnc(N)c4Cl)c(N)n3)CC2)C1N | 31.9
O=C(c1cc(Cc2n[nH]c(=O)c3ccccc23)ccc1F)N1CCN(C(=O)C2CC2)CC1 + CC1OCC2(CCN(c3cnc(Sc4ccnc(N)c4Cl)c(N)n3)CC2)C1N | 35.5
CC1(C)CCC(CN2CCN(c3ccc(C(=O)NS(=O)(=O)c4ccc(NCC5CCOCC5)c([N+](=O)[O-])c4)c(Oc4cnc5[nH]ccc5c4)c3)CC2)=C(c2ccc(Cl)cc2)C1 + C=CC(=O)N1CCN(c2nc(OCC3CCCN3C)nc3c2CCN(c2cccc4cccc(C)c24)C3)CC1CC#N | 32.6

CC1COCCN1c1cc(-c2ccnn2C)c2ccnc(-c3ccn[nH]3)c2n1 (stereo unspecified) + C=CC(=O)N1CCN(c2nc(=O)n(-c3c(C)ccnc3C(C)C)c3nc(-c4c(O)cccc4F)c(F)cc23)C(C)C1 yielded viability, T/C of 14.2

Looking up CC1OCC2(CCN(c3cnc(Sc4ccnc(N)c4Cl)c(N)n3)CC2)C1N (stereo unspecified) + CNCc1ccccc1-c1csc(C(C)Nc2nc(C)nc3cc(OC)c(OC)cc23)c1 , I found its viability, T/C recorded as 41.6

Entry CC(C)NCC(C(=O)N1CCN(c2ncnc3c2C(C)CC3O)CC1)c1ccc(Cl)cc1 (stereo unspecified) + CNCc1ccccc1-c1csc(C(C)Nc2nc(C)nc3cc(OC)c(OC)cc23)c1 ; viability, T/C = 54.6

So, Cn1nccc1Nc1nccc(-c2cc3c(s2)C(C)(C)N(CCN2CCOCC2)C3=O)n1 + CNCc1ccccc1-c1csc(C(C)Nc2nc(C)nc3cc(OC)c(OC)cc23)c1 ? Its viability, T/C was 65.1

Please fill in: viability, T/C reported for CCNC(=O)CC1N=C(c2ccc(Cl)cc2)c2cc(OC)ccc2-n2c(C)nnc21 (stereo unspecified) + CC1OCC2(CCN(c3cnc(Sc4ccnc(N)c4Cl)c(N)n3)CC2)C1N = 50.9

Values from PubChem BioAssay AID1963856
